Quick list: melting point per entry.

Check out these entries, answers already filled in.
>>> test_result("CCc1cnc2c(NC(=O)c3c(Cl)cccc3Cl)cccc2c1CCC(N)=O")
"235 to 236 °C"
>>> test_result("CC(=O)c1cc(N2CCCC2)ccc1NC(=O)c1cccc2c1OCO2")
"139 to 141 °C"
>>> test_result("CC1CC(=O)NN=C1c1ccc(NC(=O)OCC2CC2)cc1 (stereo not given)")
"240 to 241 °C"
>>> test_result("Cc1ccccc1-c1nccc2c(CC#N)cccc12")
"120 °C"
>>> test_result("O=[N+]([O-])c1cc2c(Nc3ccc(F)c(Cl)c3)ncnc2cc1OC1CCCC1")
"230 °C"

**Query** Request the reported melting point associated with CCOC(=O)Cc1nc(-c2ccccc2)oc1-c1ccco1
**Result** 79 to 80 °C

**Query** Follow-up item: Cc1c(-c2ccccc2)nc(C(F)(F)F)oc1=O
**Result** 70 °C

====

Quick list: melting point per entry.

Examples from the recorded data:
>>> test_result("O=C1N(c2ccccc2)CCN1C1CCNCC1")
"123 to 124 °C"
>>> test_result("CC(=O)Nc1ccc(C=Cc2cc(=O)cc(-c3ccccc3)o2)cc1")
"271 to 272 °C"
>>> test_result("CN(C)C=Cc1nc2ccc(F)cc2c(=O)n1-c1cccnc1Cl")
"197 to 200 °C"
>>> test_result("Cc1ccccc1NC(=O)c1c(Br)cccc1[Si](C)(C)C")
"113 to 115 °C"

Here is the next item to consider.
**Query** Item under review: CC(C)N1Cc2cc(CO)ccc2N(CCN2CC=C(c3c[nH]c4cc(F)ccc34)CC2)S1(=O)=O . Reported melting point?
**Result** 113 to 115 °C

====

Overview of reported melting point across a group of compounds:

>>> test_result("Cc1oc(-c2ccccc2)nc1COc1ccc(CC2SC(=O)NC2=O)cc1 (centres undefined)")
"162 to 163 °C"
>>> test_result("CCCOc1ccc(S(C)(=O)=O)cc1C(=O)Nc1c(CC)nn(CC2CCCN2C)c1C(N)=O (centres undefined)")
"217 to 221 °C"
>>> test_result("C=C(C)C(CC=C(C)C)CC12CC(CC=C(C)C)C(C)(C)C(CC=C(C)C)(C(=O)C(C(=O)c3ccc(O)c(O)c3)=C1O)C2=O (centres undefined)")
"126 °C"
>>> test_result("O=C(c1nnc(-c2ccccc2)o1)N1CC(Oc2ccc(CN3CC(C(F)F)C3)cc2)C1")
"147 °C"
>>> test_result("Nc1nc(N)c2c(CCc3ccc(C(=O)N[C@@H](CCC(=O)O)C(=O)O)cc3)cnc-2[nH]1")
"258 to 262 °C"

**Query** Reported melting point for CCCCCCCCC(=O)OCc1c(Cl)ccc2cc(Cl)cnc12 : what is it?
**Result** 92 °C

**Query** # repeat for C=CCOC(=O)C(C)N(C(=O)CCl)c1c(C)cccc1C (centres undefined)
**Result** 55 to 56 °C

**Query** Subsequent entry: CN(C)CCOc1ccc(C(=O)c2c(-c3ccc(O)cc3)sc3cc(O)ccc23)cc1
**Result** 141 to 144 °C

**Query** Then this compound: N=C(N)c1noc2cc([N+](=O)[O-])ccc12
**Result** 182 to 185 °C

====

ASSAY_ENDPOINT: melting point (°C)
Give just the numeric value; °C need not be written.

>>> test_result("COc1ccc(-c2ccnc(-c3cn(C)c(=O)n3-c3ccc(C(C)(C)C#N)cc3)c2)cn1")
187

Consider now this further molecule.
**Query** Consider the molecule shown here: CC(C)c1ccc2nc(C(F)(F)F)c(C(=O)O)c(O)c2c1 What is its recorded melting point?
**Result** 206

====

Measured melting point accompanies every entry in the list below.

>>> test_result("N#Cc1ccc(NC2CCN(Cc3cc(F)cc(C(F)(F)F)c3)CC2)nn1")
"151 °C"
>>> test_result("CCCCc1nc(CCCC)n(Cc2ccc(-c3ccccc3-c3nnn[nH]3)cn2)n1")
"136 to 138 °C"
>>> test_result("CCc1nc(/C=C/c2cn(-c3ccccc3)nc2OCc2ccc(OCc3nc(-c4cccc(NS(C)(=O)=O)c4)oc3C)c(OC)c2)cs1")
"113 to 115 °C"
>>> test_result("O=C(O)C(=O)C=Cc1ccccc1F")
"100 to 102 °C"
>>> test_result("C#CCON=C(CCC)C1=C(O)CC(c2ccc(C(=O)SC)cc2)CC1=O (stereo not given)")
"95 to 96 °C"
>>> test_result("O=C(O)Cc1cc(C=Cc2ccc(C(=O)O)cc2)ccc1O")
"> 260 °C"
>>> test_result("NCC1(SCc2ccccc2)C2CC3CC(C2)CC1C3 (stereo not given)")
"82 to 85 °C"
>>> test_result("O=C(O)c1cc(Cl)ccc1S")
"192 to 194 °C"
>>> test_result("c1nc(NCCN2CCOCC2)c2sc3nc(N4CCOCC4)c4c(c3c2n1)CCOC4")
"184 to 185 °C"

Then this molecule:
**Query** Field request: melting point | item: COC(=O)NNC(=O)CCc1ccccc1
**Result** 118 °C

====

melting point by entry:

Reference set, count: 5
>>> test_result("CC1CC(=O)NN=C1c1ccc(NCC(C)(C)[N+](=O)[O-])cc1 (stereo not drawn)")
"187 to 189 °C"
>>> test_result("CC(C)(C)c1ccc(N2CC(COC(=O)c3ccccc3C(=O)O)CC2=O)cc1 (stereo not drawn)")
"155 to 157 °C"
>>> test_result("CC(C)c1nnnn1-c1cc(C(=O)O)cc(-c2ccc(Cl)cn2)c1")
"180 to 181 °C"
>>> test_result("COP(=O)(CCC(C)(C)c1cc(O)c(C(C)(C)C)cc1O)OC")
"193 to 195 °C"
>>> test_result("O=C(C/C=C/c1ccccc1)Nc1cccc(-n2ccnc2)c1")
"130 to 133 °C"

**Query** Could you tell me which melting point is on file for COC(=O)C1=CC(C(=O)c2cc(C)ccc2O)=CN2CCc3c([nH]c4ccccc34)C12C(=O)OC (stereo not drawn) ?
**Result** 197 °C

**Query** Another compound to look at: CC(C)(C)OC(=O)c1c(Cl)cc(N2C(=O)N3CCCC3(Cc3ccc(Br)cc3)C2=O)cc1Cl (stereo not drawn)
**Result** 109 to 110 °C

**Query** Field entry: C=C(CC(Cl)(Cl)Cl)c1cc(Cl)nc(Cl)c1
**Result** 82 to 83 °C

**Query** Continue with O=CCCCCCN1C(=O)c2ccccc2C1=O
**Result** 69 to 71 °C

**Query** Try this compound too: CC(=N)NC(=O)Nc1ccc(C#N)c(Cl)c1
**Result** 182 to 183 °C

**Query** Can you handle Nc1cccc2c1CNC2 next?
**Result** 81 to 85 °C

**Query** One more compound: O=c1cc(Br)ccn1C1CC1
**Result** 91 to 94 °C

**Query** Thanks! And Cc1nc(Cc2ccccc2)c2c(c1O)COC(C(C)C)OC2 (stereo not drawn) ?
**Result** 193 to 194 °C

**Query** Same again, this time with CN(C)C(=O)c1cc(N(C)C)cc(C(=O)N(C)C)n1
**Result** 175 to 178 °C

**Query** Follow-up entry: CS(=O)(=O)c1ccc(Nc2cc(N3CCOCC3)nc(-c3ccccc3)n2)cc1
**Result** 238 to 240 °C

**Query** Same read-out for NC(=O)Cn1nccc1-c1ccc(Oc2ccc(F)cc2)cc1 ?
**Result** 168 to 169 °C

====

ASSAY_ENDPOINT: melting point

>>> test_result("CC(=O)Nc1nc2c(Oc3cc(-c4ccc(C(F)(F)F)cc4NC(=O)C4CCCCN4CC(C)C)ncn3)cccc2s1 (stereo unspecified)")
"153 to 155 °C"
>>> test_result("CC(S)Cn1c(=O)[nH]c2ccccc2c1=O (stereo unspecified)")
"206 to 208 °C"
>>> test_result("C[C@H](CC(F)(F)F)[C@@H](CO)NS(=O)(=O)c1ccc(Cl)s1")
"132 to 133 °C"
>>> test_result("Nc1nc(Cl)c2cnn(Cc3ccccc3F)c2n1")
"197 to 198 °C"
>>> test_result("CC(=O)Nc1ccc(-c2ccnc3c(C(=O)c4ccccc4)cnn23)cc1")
"229 to 231 °C"
>>> test_result("O=C(O)C1CCCC2CSc3ccccc3C21 (stereo unspecified)")
"200 to 203 °C"
>>> test_result("Cc1c(NC(=O)CC(C)(C)C)c(C)c2c(c1-c1ccc(F)nc1)OCC2c1ccc(C(C)C)cc1 (stereo unspecified)")
"135 to 137 °C"
>>> test_result("CCC(C#N)CCn1nc(C(N)=O)c2ccccc21 (stereo unspecified)")
"178 to 180 °C"
>>> test_result("CN1CCC(Nc2ccccc2C(=O)c2ccccc2Cl)CC1")
"128 to 129 °C"
>>> test_result("COC(=O)c1cc(-c2nc(COc3ccc(CO)cc3OC)c(C)o2)ccc1OS(C)(=O)=O")
"126 to 127 °C"

**Query** melting point lookup needed for O=[N+]([O-])c1ccccc1-c1oc2ccc(CBr)cc2c1Br , thanks.
**Result** 118 °C

**Query** And CCCCc1ncc(C=C2C(=O)Nc3ccc(Cl)cc32)n1Cc1ccc(C(=O)OC)cc1 ?
**Result** 238 to 241 °C

**Query** Likewise for CC(C)c1nn(-c2ccc(C(F)(F)F)cn2)cc1CCCO ?
**Result** 87 to 88 °C

**Query** Ok, now N=C(NCc1cccc(F)c1)N[N+](=O)[O-]
**Result** 177 to 179 °C

**Query** And for CCc1c(CCC(=O)O)ccc2c1OCO2 ?
**Result** 127 to 128 °C

**Query** Also need Cc1ccc(C(Cl)=C(Cl)Cl)cn1 , thanks.
**Result** 37 to 39 °C

**Query** Request: COc1ccc(-n2nc(CCCNO)cc2-c2ccc(Cl)cc2)cc1
**Result** 91 to 93 °C

**Query** Also check COC(=O)COc1ccc(NC(=O)CCCCCOCc2ccccc2)cc1
**Result** 64.6 to 67 °C

**Query** Item: CC1(O/N=C(\C(=O)O)c2csc(N)n2)CCCCC1
**Result** 203 to 204 °C

**Query** Same question for C[Si](C)(C)N1CCN(N=Cc2ccccc2)C(=O)C1=O please.
**Result** 190 to 191 °C

**Query** What do we get for C=CCOC(=O)CCCOc1cc([N+](=O)[O-])c(CO)cc1OC ?
**Result** 73 to 75 °C
